Value source: paper PMC10308197

target: METTL9 (Homo sapiens, UniProt Q9H1A3)
Sequence (Q9H1A3 whole entry): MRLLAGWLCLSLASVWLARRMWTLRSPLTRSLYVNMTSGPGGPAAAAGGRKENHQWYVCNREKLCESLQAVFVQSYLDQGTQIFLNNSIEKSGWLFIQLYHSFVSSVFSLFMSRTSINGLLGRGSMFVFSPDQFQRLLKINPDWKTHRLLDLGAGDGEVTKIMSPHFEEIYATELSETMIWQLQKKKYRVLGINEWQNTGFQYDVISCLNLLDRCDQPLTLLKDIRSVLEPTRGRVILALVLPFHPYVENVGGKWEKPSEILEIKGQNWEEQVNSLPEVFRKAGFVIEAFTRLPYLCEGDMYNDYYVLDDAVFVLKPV
So I've got a bunch of compounds here, and I need their Kd values.
Answer in nM, number only, no unit symbol.

Task item: Returns the measured Kd for the input compound. Input: C[S+](CC[C@H](N)C(=O)[O-])C[C@H]1O[C@@H](n2cnc3c(N)ncnc32)[C@H](O)[C@@H]1O (some centres unmarked)
Reply: 1600

Task item: Would you mind doing Nc1ncnc2c1ncn2[C@@H]1O[C@H](CSCC[C@H](N)C(=O)O)[C@@H](O)[C@H]1O as well?
Reply: 3100
